# System: HSkMC (human skeletal muscle cells)
# Assay explanation: cytotoxicity call (relative viability < 0.9)
# Measurement conditions: 10 µM
Among all 39,000 compounds or so, about 1,500 (3.8%) were called active. What follows is part of a selection rich in actives, with near analogues and random picks from the rest.
Write down one outcome, taken from active, inactive

[in] Per the records of this test, what outcome belongs to C[C@@H]1CN([C@H](C)CO)C(=O)c2cccc(NC(=O)C3CC3)c2O[C@H]1CN(C)S(=O)(=O)c1cn(C)cn1 ?
[out] inactive

[in] Please state the recorded outcome for this compound: COc1ncc(NC(=O)C2CC2)c(OC)n1
[out] inactive

[in] How did this test come out for CC(C)(O)C#Cc1ccc([C@H]2[C@@H](CO)N3CCCCN(S(C)(=O)=O)C[C@@H]23)cc1 ?
[out] inactive

[in] Name the outcome recorded for CC(C)NC(=O)N(C)C[C@@H]1OCCCC[C@@H](C)Oc2ccc(NC(=O)Nc3ccc(C(F)(F)F)cc3)cc2C(=O)N([C@@H](C)CO)C[C@@H]1C in the assay.
[out] inactive

[in] I'd appreciate the recorded outcome for C[C@H](CO)N1C[C@H](C)[C@H](CN(C)Cc2ccc(C(=O)O)cc2)Oc2ccc(NS(=O)(=O)c3cn(C)cn3)cc2C1=O from this test.
[out] inactive

***
[in] Tell me the assay call for O=C(CNc1ccc2c(c1)oc1ccccc12)c1ccc(F)cc1 please.
[out] inactive

[in] What did this assay record as the result for N[C@@H]1CCCN(c2c(Br)cnc3[nH]cc(NC(=O)C4CC4)c23)C1 ?
[out] active

[in] Call for entry Cc1noc(C)c1S(=O)(=O)N(C)C[C@@H]1OCCCC[C@@H](C)Oc2ccc(NC(=O)Nc3ccc(F)cc3)cc2C(=O)N([C@@H](C)CO)C[C@H]1C :
[out] inactive
